- target-of-assay: T1, FOXA1 DBD (Homo sapiens, UniProt P55317 158-272)
- T1 sequence: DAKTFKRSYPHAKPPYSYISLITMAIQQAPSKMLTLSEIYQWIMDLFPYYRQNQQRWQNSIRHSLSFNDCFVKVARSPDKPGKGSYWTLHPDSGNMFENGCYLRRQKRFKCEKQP
- experiment: EMSA; 1 nM DNA; monomer; n=3; EMSA: 20 mM Tris-HCl pH 8.0, 100 mM KCl, 50 uM ZnCl2, 0.1 mg/ml BSA, 10% glycerol, 0.1% Igepal CA630, 2 mM beta-mercaptoethanol, 1 h at 4 C; 1-100 nM dsDNA; 12% native PAGE (6% for full length)
- test-parameters: protein: recombinant; tags: His-tag implied (pNic28-Bsa4, Ni-NTA); label: 5' Cy5 forward strand
reported-endpoint: Kd (nM)
State just the number; it will be interpreted in nM.

Please look up its Kd: FOXA1 monomer element (dsDNA) DNA 1: CCGCCGCCGTGTTTACTTTGCCGCCGCC DNA 2: GGCGGCGGCAAAGTAAACACGGCGGCGG
2.4

Data provenance: paper PMC6009666
